System: Klebsiella pneumoniae KPN+19-15
Format: cell-based
EXPERIMENTAL_CONTEXT: KPN+19-15
Bridge positions count the residues as written; N and C are the ends. Square brackets hold non-standard residues; d marks the D form. Peptide text beside a SMILES is read from it. * marks the point of attachment. Heptanoyl(6-Me) = CC(C)CCCCC(=O)*; dOrn = NCCC[C@@H](N)C(=O)O; X1 = CC[C@H](C)CCCCC(=O)*; Heptanoyl = CCCCCCC(=O)*; Orn = NCCC[C@H](N)C(=O)O; Dab = NCC[C@H](N)C(=O)O
MEASURED_METRIC: MIC

{"COMPOUND": "CC[C@H](C)CCCCC(=O)N[C@@H](CCN)C(=O)N[C@H](C(=O)N[C@H](CCCN)C(=O)N[C@H]1CCNC(=O)[C@H]([C@@H](C)O)NC(=O)[C@H](CCN)NC(=O)[C@H](CCN)NC(=O)[C@H](CC(C)C)NC(=O)[C@@H](Cc2ccccc2)NC(=O)[C@H](CCN)NC1=O)[C@@H](C)O [Compound 41] (X1-[Dab]T[dOrn][Dab][Dab][dF]L[Dab][Dab]T; lactam 4-C)", "VALUE_OBSERVED": "0.125 µg/mL"}
{"COMPOUND": "CCCCCCC(=O)N[C@@H](CCN)C(=O)N[C@H](C(=O)N[C@H](CCCN)C(=O)N[C@H]1CCNC(=O)[C@H]([C@@H](C)O)NC(=O)[C@H](CCN)NC(=O)[C@H](CCN)NC(=O)[C@H](CC(C)C)NC(=O)[C@@H](Cc2ccccc2)NC(=O)[C@H](CCN)NC1=O)[C@@H](C)O [Compound 44] (Heptanoyl-[Dab]T[dOrn][Dab][Dab][dF]L[Dab][Dab]T; lactam 4-C)", "VALUE_OBSERVED": "0.125 µg/mL"}
{"COMPOUND": "CC(C)CCCCC(=O)N[C@@H](CCN)C(=O)N[C@H](C(=O)N[C@@H](CCCN)C(=O)N[C@H]1CCNC(=O)[C@H]([C@@H](C)O)NC(=O)[C@H](CCN)NC(=O)[C@H](CCN)NC(=O)[C@H]([C@@H](C)O)NC(=O)[C@@H](Cc2ccccc2)NC(=O)[C@H](CCN)NC1=O)[C@@H](C)O [Compound 27] ({Heptanoyl(6-Me)}-[Dab]T[Orn][Dab][Dab][dF]T[Dab][Dab]T; lactam 4-C)", "VALUE_OBSERVED": "≤0.03 µg/mL"}

----------
Test system: Acinetobacter baumannii ABA19-1
Type: cell-based
EXPERIMENTAL_CONTEXT: ABA19-1
Bridge positions count the residues as written; N and C are the ends. Square brackets hold non-standard residues; d marks the D form. Peptide text beside a SMILES is read from it. * marks the point of attachment. Heptanoyl(6-Me) = CC(C)CCCCC(=O)*; X1 = CC[C@H](C)CCCCC(=O)*; dDab = NCC[C@@H](N)C(=O)O; Orn = NCCC[C@H](N)C(=O)O; Dab = NCC[C@H](N)C(=O)O; Dap = NC[C@H](N)C(=O)O
MEASURED_METRIC: MIC (µg/mL)

{"MOLECULE": "CC(C)CCCCC(=O)N[C@@H](CN)C(=O)N[C@H](C(=O)N[C@H](CCN)C(=O)N[C@H]1CCNC(=O)[C@H]([C@@H](C)O)NC(=O)[C@H](CCN)NC(=O)[C@H](CCN)NC(=O)[C@H](CC(C)C)NC(=O)[C@@H](CC(C)C)NC(=O)[C@H](CCN)NC1=O)[C@@H](C)O [Compound 97] ({Heptanoyl(6-Me)}-[Dap]T[dDab][Dab][Dab][dL]L[Dab][Dab]T; lactam 4-C)", "UNITS_TEXT": "µg/mL", "VALUE_OBSERVED": 0.03}
{"MOLECULE": "CC[C@H](C)CCCCC(=O)N[C@@H](CN)C(=O)N[C@H](C(=O)N[C@H](CO)C(=O)N[C@H]1CCNC(=O)[C@H]([C@@H](C)O)NC(=O)[C@H](CCN)NC(=O)[C@H](CCN)NC(=O)[C@H]([C@@H](C)O)NC(=O)[C@@H](Cc2ccccc2)NC(=O)[C@H](CCN)NC1=O)[C@@H](C)O [Compound 51] (X1-[Dap]T[dS][Dab][Dab][dF]T[Dab][Dab]T; lactam 4-C)", "UNITS_TEXT": "µg/mL", "VALUE_OBSERVED": 0.25}
{"MOLECULE": "CC(C)CCCCC(=O)N[C@@H](CCN)C(=O)N[C@H](C(=O)N[C@H](CO)C(=O)N[C@H]1CCNC(=O)[C@H]([C@@H](C)O)NC(=O)[C@H](CCCN)NC(=O)[C@H](CCN)NC(=O)[C@H]([C@@H](C)O)NC(=O)[C@@H](Cc2ccccc2)NC(=O)[C@H](CCN)NC1=O)[C@@H](C)O [Compound 87] ({Heptanoyl(6-Me)}-[Dab]T[dS][Dab][Dab][dF]T[Dab][Orn]T; lactam 4-C)", "UNITS_TEXT": "µg/mL", "VALUE_OBSERVED": 0.06}

----------
Tested on: Klebsiella pneumoniae KPN+19-15
Type: cell-based
EXPERIMENTAL_CONTEXT: KPN+19-15
Numbered stars: 1 amine (or outer) side, 2 acyl side, 3 side chain; on linkers, the order of the positions; unused ones are H or OH. Bridge positions count the residues as written; N and C are the ends. Square brackets hold non-standard residues; d marks the D form. Peptide text beside a SMILES is read from it. * marks the point of attachment. X3 = O=C([C@@H](Cc1ccc(CS(=O)(=O)O)cc1)N[*:1])[*:2]; Heptanoyl(6-Me) = CC(C)CCCCC(=O)*; dOrn = NCCC[C@@H](N)C(=O)O; Nonanoyl = CCCCCCCCC(=O)*; X1 = CC[C@H](C)CCCCC(=O)*; Heptanoyl = CCCCCCC(=O)*; Octanoyl = CCCCCCCC(=O)*; Orn = NCCC[C@H](N)C(=O)O; Dab = NCC[C@H](N)C(=O)O; Dap = NC[C@H](N)C(=O)O
Documented MIC across a set of compounds

{"COMPOUND": "CCCCCCCC(=O)N[C@@H](CCN)C(=O)N[C@H](C(=O)N[C@H](CCCN)C(=O)N[C@H]1CCNC(=O)[C@H]([C@@H](C)O)NC(=O)[C@H](CCN)NC(=O)[C@H](CCN)NC(=O)[C@H]([C@@H](C)O)NC(=O)[C@@H](Cc2ccccc2)NC(=O)[C@H](CCN)NC1=O)[C@@H](C)O [Compound 23] (Octanoyl-[Dab]T[dOrn][Dab][Dab][dF]T[Dab][Dab]T; lactam 4-C)", "RELATION_OPERATOR": "=", "MIC [µg/mL]": 0.125}
{"COMPOUND": "CC[C@H](C)CCCCC(=O)N[C@@H](CCN)C(=O)N[C@H](C(=O)N[C@@H](CCCN)C(=O)N[C@H]1CCNC(=O)[C@H]([C@@H](C)O)NC(=O)[C@H](CCN)NC(=O)[C@H](CCN)NC(=O)[C@H](CC(C)C)NC(=O)[C@@H](Cc2ccccc2)NC(=O)[C@H](CCN)NC1=O)[C@@H](C)O [Compound 46] (X1-[Dab]T[Orn][Dab][Dab][dF]L[Dab][Dab]T; lactam 4-C)", "RELATION_OPERATOR": "≤", "MIC [µg/mL]": 0.03}
{"COMPOUND": "CC(C)CCCCC(=O)N[C@@H](CCN)C(=O)N[C@H](C(=O)N[C@H](CO)C(=O)N[C@H]1CCNC(=O)[C@H]([C@@H](C)O)NC(=O)[C@H](CCN)NC(=O)[C@H](CCN)NC(=O)[C@H]([C@@H](C)O)NC(=O)[C@@H](Cc2ccc(CS(=O)(=O)O)cc2)NC(=O)[C@H](CCN)NC1=O)[C@@H](C)O [Compound 107] ({Heptanoyl(6-Me)}-[Dab]T[dS][Dab][Dab][X3]T[Dab][Dab]T; lactam 4-C)", "RELATION_OPERATOR": "=", "MIC [µg/mL]": 0.125}
{"COMPOUND": "CCCCCCCCC(=O)N[C@@H](CCN)C(=O)N[C@H](C(=O)N[C@@H](CCN)C(=O)N[C@H]1CCNC(=O)[C@H]([C@@H](C)O)NC(=O)[C@H](CCN)NC(=O)[C@H](CCN)NC(=O)[C@H]([C@@H](C)O)NC(=O)[C@@H](Cc2ccccc2)NC(=O)[C@H](CCN)NC1=O)[C@@H](C)O [Compound 20] (Nonanoyl-[Dab]T[Dab][Dab][Dab][dF]T[Dab][Dab]T; lactam 4-C)", "RELATION_OPERATOR": "=", "MIC [µg/mL]": 0.06}
{"COMPOUND": "CCCCCCCCC(=O)N[C@@H](CCN)C(=O)N[C@H](C(=O)N[C@@H](CN)C(=O)N[C@H]1CCNC(=O)[C@H]([C@@H](C)O)NC(=O)[C@H](CCN)NC(=O)[C@H](CCN)NC(=O)[C@H](CC(C)C)NC(=O)[C@@H](Cc2ccccc2)NC(=O)[C@H](CCN)NC1=O)[C@@H](C)O [Compound 40] (Nonanoyl-[Dab]T[Dap][Dab][Dab][dF]L[Dab][Dab]T; lactam 4-C)", "RELATION_OPERATOR": "=", "MIC [µg/mL]": 0.06}
{"COMPOUND": "CCCCCCC(=O)N[C@@H](CN)C(=O)N[C@H](C(=O)N[C@H](CO)C(=O)N[C@H]1CCNC(=O)[C@H]([C@@H](C)O)NC(=O)[C@H](CCN)NC(=O)[C@H](CCN)NC(=O)[C@H]([C@@H](C)O)NC(=O)[C@@H](Cc2ccccc2)NC(=O)[C@H](CCN)NC1=O)[C@@H](C)O [Compound 54] (Heptanoyl-[Dap]T[dS][Dab][Dab][dF]T[Dab][Dab]T; lactam 4-C)", "RELATION_OPERATOR": "=", "MIC [µg/mL]": 0.5}
{"COMPOUND": "CCCCCCCCC(=O)N[C@@H](CCN)C(=O)N[C@H](C(=O)N[C@@H](CCCN)C(=O)N[C@H]1CCNC(=O)[C@H]([C@@H](C)O)NC(=O)[C@H](CCN)NC(=O)[C@H](CCN)NC(=O)[C@H]([C@@H](C)O)NC(=O)[C@@H](Cc2ccccc2)NC(=O)[C@H](CCN)NC1=O)[C@@H](C)O [Compound 30] (Nonanoyl-[Dab]T[Orn][Dab][Dab][dF]T[Dab][Dab]T; lactam 4-C)", "RELATION_OPERATOR": "=", "MIC [µg/mL]": 0.03}
{"COMPOUND": "CCCCCCCC(=O)N[C@@H](CCN)C(=O)N[C@H](C(=O)N[C@H](CO)C(=O)N[C@H]1CCNC(=O)[C@H]([C@@H](C)O)NC(=O)[C@H](CCN)NC(=O)[C@H](CCCN)NC(=O)[C@H]([C@@H](C)O)NC(=O)[C@@H](Cc2ccccc2)NC(=O)[C@H](CCN)NC1=O)[C@@H](C)O [Compound 78] (Octanoyl-[Dab]T[dS][Dab][Dab][dF]T[Orn][Dab]T; lactam 4-C)", "RELATION_OPERATOR": "=", "MIC [µg/mL]": 0.5}
{"COMPOUND": "CC[C@H](C)CCCCC(=O)N[C@@H](CCN)C(=O)N[C@H](C(=O)N[C@@H](CN)C(=O)N[C@H]1CCNC(=O)[C@H]([C@@H](C)O)NC(=O)[C@H](CCN)NC(=O)[C@H](CCN)NC(=O)[C@H](CC(C)C)NC(=O)[C@@H](Cc2ccccc2)NC(=O)[C@H](CCN)NC1=O)[C@@H](C)O [Compound 36] (X1-[Dab]T[Dap][Dab][Dab][dF]L[Dab][Dab]T; lactam 4-C)", "RELATION_OPERATOR": "=", "MIC [µg/mL]": 0.03}
